- System: OVCAR-3 ovarian
- ASSAY REMARKS: NCI tumour cell line growth inhibition, 48 h
RECORDED METRIC: TGI

COMPOUND	TGI
CC(=O)SC(C[N+](=O)[O-])c1ccccc1 (stereo not drawn)	20.7 µM
O=C1OC(=O)C2C1C1(c3ccccc3)OC2(c2ccccc2)c2c(Br)c(Br)c(Br)c(Br)c21 (stereo not drawn)	> 100 µM
c1ccc2c(c1)-c1nc3ccccc3cc1C2N1CCOCC1 (stereo not drawn)	> 100 µM
CN=C(NC#N)NCc1ccccc1	> 100 µM
CN(CC(=O)O)Cc1c[nH]c2ccccc12	> 100 µM

Request the reported TGI associated with `O=C1C=C(NCCc2ccc(O)cc2)C(=O)C=C1NCCc1ccc(O)cc1`
> 100 µM

Field request: TGI | item: `O=c1ccc2c(Cl)sc(Cl)c2[nH]1`
> 100 µM

// lookup TGI for `FC(F)(F)c1ccc(N=NN2CCCC2)cc1`
> 100 µM

# get_value(readout='TGI', item= O=c1c2ccc(Br)cc2nc(-c2ccccc2)n1NC1OC(CO)C(O)C(O)C1O (stereo not drawn) )
> 100 µM

What does the data say about its TGI? Entry: OC1OC2COC(c3ccccc3)OC2C(O)C1O (stereo not drawn)
> 100 µM

---

- System: HS 578T breast
- ASSAY REMARKS: NCI tumour cell line growth inhibition, 48 h
# TGI per record follows

Please report the recorded TGI for `FC(F)(F)c1ccc(N=NN2CCCC2)cc1` .
> 100 µM

Which TGI value belongs to `O=C(CN1CCOCC1)c1ccc2c(c1)oc(=O)n2CCN1CCCCC1` ?
> 100 µM

# lookup: TGI of `COc1ccc(/C=C/c2cnnc3ccccc23)cc1OC`
> 10 µM

Query: TGI; subject: Nc1c2c(c(O)c3c1=C(CO)C=N3)=NCCS2=O (stereo not given)
7.9 µM

Query: TGI; subject: `COc1ccc([C@H]2C=C(c3cc(F)c(Cl)cc3Cl)N=c3s/c(=C\c4ccc(-c5ccc(Cl)cc5Cl)o4)c(=O)n32)cc1`
> 100 µM

Return reported TGI; argument: Cc1cccc(C)c1NC(=O)/C(CC(=O)CC(c1ccccc1)c1c(O)c2ccccc2oc1=O)=N/O (stereo not given)
> 100 µM

Field request: TGI | item: `N#C[C@H](c1nc2ccccc2[nH]1)c1nc2ccccc2nc1Cl`
> 100 µM

Query (compound): `COC(=O)CCC(=O)c1ccc2c(c1)CC1(Cc3ccccc3C1)C2` ; field requested: TGI
> 100 µM

Would you mind telling me what TGI value was observed for ClC1(Cl)C2CCOC21n1cnc2ccccc21 (stereo not given) ?
> 100 µM

Bench note: what TGI did Cc1cn(C2CC(/[N+]([O-])=N\Nc3ccc([N+](=O)[O-])cc3)C(CO)O2)c(=O)[nH]c1=O (stereo not given) show?
> 100 µM

---

- Tested on: TK-10 renal
- ASSAY REMARKS: NCI tumour cell line growth inhibition, 48 h
RECORDED METRIC: TGI

Can you look up the measured TGI of CC(=O)Oc1ccc(C2SCc3nc4ccccc4n32)cc1 (centres undefined) for me?
> 100 µM

Need TGI of `COc1ccc(-c2nn(C(=O)c3cc(OC)c(OC)c(OC)c3)c3cc(N)ccc23)cc1` , thanks.
27.4 µM

Given the compound `Cc1cc(=O)[nH]c2c1C(=O)C(=O)C=C2` , what is its reported TGI?
> 100 µM

State the recorded TGI for this entry: COC(=O)Cc1c(-c2c(CC(=O)OC)c3ccccc3n2C2OC(COC3OC(COC(C)=O)C(OC(C)=O)C(OC(C)=O)C3OC(C)=O)C(O)C(O)C2O)[nH]c2ccccc12 (centres undefined)
> 100 µM

Which measured TGI value corresponds to `CC(=O)c1ccc(-c2ccc(C(C)=O)s2)s1` ?
> 100 µM

What value of TGI has been reported for the following compound? `O=C(O)Cc1ccc(-n2nnc3c(=O)[nH][nH]c(=O)c32)cc1`
> 100 µM

What does the record list as TGI for FC1(F)SC2CCCCCCCCCCC2C1(F)F (centres undefined) ?
> 100 µM

Which TGI value belongs to `CSc1c(C#N)c(=O)n(N)c2n[nH]c(C)c12` ?
> 100 µM

Consider the compound shown here: `O=c1cc(/C=C/c2ccccc2)c2ccc(O/C(=C\c3ccccc3)c3nc4ccccc4c(=O)o3)cc2o1` What is its recorded TGI?
> 100 µM
